Catalogue of koff readings, one per entry.
Molecular target: T1, Mouse ST2 (mouse, UniProt P14719 27-332, limits assumed)
T1 construct: also called mouse ST2 protein
T1 sequence (looked up): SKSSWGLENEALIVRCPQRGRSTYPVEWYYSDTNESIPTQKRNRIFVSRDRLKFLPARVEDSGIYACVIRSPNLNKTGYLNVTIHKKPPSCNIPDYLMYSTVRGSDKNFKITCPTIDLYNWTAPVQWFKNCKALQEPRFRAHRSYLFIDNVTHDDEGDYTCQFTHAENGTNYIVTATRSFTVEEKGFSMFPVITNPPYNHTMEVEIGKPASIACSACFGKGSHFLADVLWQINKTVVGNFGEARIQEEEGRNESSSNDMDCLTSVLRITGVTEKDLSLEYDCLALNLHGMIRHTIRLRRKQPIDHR
Assay: SPR (Carterra), antibody immobilized, ST2 analyte, 1:1
Quick reminder: number only, in s⁻¹, skip the unit.

Completed entries (count: 3):
{"columns": ["binder", "measure", "unit", "endpointValue"],
 "data": [
  ["Human ST2 IgG1 Antibody 19 (antibody, V domains shown, IgG1, kappa; also called ST2 Antibody 19) VH: EVQLLESGGGLVQPGGSLRLSCAASGFSFSHAWMSWVRQAPGKGLEWVSVIHSGGSTFYADSVKGRFTISRDNSKNTLYLQMNSLRAEDTAVYYCARIGKGGGFDYWGQGTLVTVSS VL: DIQMTQSPSSLSASVGDRVTITCRASQDIGSWLAWYQQKPGKAPKLLIYAASSLQSGVPSRFSGSGSGTDFTLTISSLQPEDFATYYCQQSYSTPPTFGQGTKVEIKR", "koff", "s⁻¹", 0.11],
  ["Human ST2 IgG1 Antibody 52 (antibody, V domains shown, IgG1, kappa; also called ST2 Antibody 52) VH: QVQLVQSGAEVKKPGSSVKVSCKASGGTFSNYAISWVRQAPGQGLEWMGWISAYNGNTNYAQKFQGRVTITADESTSTAYMELSSLRSEDTAVYYCARLSTVTTRPYYYYGMDVWGQGTTVTVSS VL: DIVMTQSPLSLPVTPGEPASISCRSSQSLLHSNGYNYLDWYLQKPGQSPQLLIYAASSLQGGVPDRFSGSGSGTDFTLKISRVEAEDVGVYYCMQGTHWPTFGQGTKVEIKR", "koff", "s⁻¹", 0.16],
  ["Human ST2 IgG1 Antibody 86 (antibody, V domains shown, IgG1, kappa; also called ST2 Antibody 86) VH: QVQLVQSGAEVKKPGSSVKVSCKASGGTFSNYAISWVRQAPGQGLEWMGGIIPIFGTANYAQKFQGRVTITADESTSTAYMELSSLRSEDTAVYYCAKDLGGWFNLFDPWGQGTLVTVSS VL: EIVMTQSPATLSVSPGERATLSCRASQGVSSYLAWYQQKPGQAPRLLIYGASTRATGIPARFSGSGSGTEFTLTISSLQSEDFAVYYCQQYRSFPLTFGGGTKVEIKR", "koff", "s⁻¹", 0.098]
]}

Now look at this one.
Q. Hello, please tell me recorded koff for this one: Human ST2 IgG1 Antibody 34 (antibody, V domains shown, IgG1, kappa; also called ST2 Antibody 34) VH: QVQLVQSGAEVKKPGASVKVSCKASGQTFTDYAINWVRQAPGQGLEWMGWMNPNSGNTGYAQKFQGRVTMTRDTSTSTVYMELSSLRSEDTAVYYCARETLEQQLPFDYWGQGTLVTVSS VL: DIQMTQSPSSLSASVGDRVTITCRASQSISSWLAWYQQKPGKAPKLLIYAASTLQSGVPSRFSGSGSGTDFTLTISSLQPEDFATYYCQQYYSTLYTFGQGTKVEIKR
A. 0.0019

Data origin, for the record: patent US20210403579A1
